For each of the compounds below, state its inhibition at 1 µM.
- target system: HDM2 (Homo sapiens, UniProt Q00987)
- Construct: Thioredoxin (N); made in house; host or cells: E. coli strain BL21(DE3)Rosetta
- Sequence (Q00987 17-125): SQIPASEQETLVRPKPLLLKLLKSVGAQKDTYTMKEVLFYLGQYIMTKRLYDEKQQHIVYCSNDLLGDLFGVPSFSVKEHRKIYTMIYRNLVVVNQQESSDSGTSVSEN
- assay notes: HDM2 FRET assay (inhibition of binding of FITC labeled p53-pocket peptide to HDM2)
- protocol conditions: read-out: inh. at 1000 nM (FRET)
One number for each entry, in %.

List inhibition at 1 µM for every entry below, keeping the order given.
1. Cc1cccc(-c2nc3nc(C(=O)O)nc(N4CCCC4CC(C)C)c3n2Cc2ccc(C(F)(F)F)cc2)c1 (stereo not shown)
2. Cc1cccc(-c2nc3nc(C(=O)O)nc(N4Cc5ccccc5C4)c3n2Cc2ccc(C(F)(F)F)cc2)c1
3. Cc1cccc(-c2nc3nc(C(=O)O)nc(N4CCCC4C(C)(C)C)c3n2Cc2ccc(C(F)(F)F)cc2)c1 (stereo not shown)
4. Cc1cccc(-c2nc3nc(C(=O)O)nc(N4CCCC4C4CCCCC4)c3n2Cc2ccc(C(F)(F)F)cc2)c1 (stereo not shown)

1. 32
2. 46
3. 43
4. 40

Below is a list of compounds. For each, state its recorded inhibition at 1 µM.
1. Cc1cccc(-c2nc3nc(C(=O)O)nc(N(C)C(C4CC4)C4CC4)c3n2Cc2ccc(C(F)(F)F)cc2)c1
2. CCC1CCN(c2nc(C(=O)O)nc3nc(-c4cccc(C)c4)n(Cc4ccc(C(F)(F)F)cc4)c23)C1 (stereo not shown)
3. Cc1cccc(-c2nc3nc(C(=O)O)nc(N(C)CCC(C)C)c3n2Cc2ccc(C(F)(F)F)cc2)c1
4. CC[C@H](C)Nc1nc(C(=O)O)nc2nc(-c3cccc(C)c3)n(Cc3ccc(C(F)(F)F)cc3)c12
5. CCCN(CC)c1nc(C(=O)O)nc2nc(-c3cccc(C)c3)n(Cc3ccc(C(F)(F)F)cc3)c12
6. Cc1cccc(-c2nc3nc(C(=O)O)nc(N(C)CC(C)C)c3n2Cc2ccc(C(F)(F)F)cc2)c1
7. Cc1cccc(-c2nc3nc(C(=O)O)nc(N(C)C(C)C4CC4)c3n2Cc2ccc(C(F)(F)F)cc2)c1 (stereo not shown)
8. CCC1CCCN1c1nc(C(=O)O)nc2nc(-c3cccc(C)c3)n(Cc3ccc(C(F)(F)F)cc3)c12 (stereo not shown)

1. 46
2. 41
3. 36
4. 41
5. 39
6. 40
7. 33
8. 33

Please supply inhibition at 1 µM for each of the following items, keeping them in order.
1. Cc1cccc(-c2nc3nc(C(=O)O)nc(N(C)CC4CC4(C)C)c3n2Cc2ccc(C(F)(F)F)cc2)c1 (stereo not shown)
2. Cc1cccc(Nc2nc(C(=O)O)nc3nc(-c4cccc(C)c4)n(Cc4ccc(C(F)(F)F)cc4)c23)c1
3. Cc1cccc(-c2nc3nc(C(=O)O)nc(NC(C)CC(C)C)c3n2Cc2ccc(C(F)(F)F)cc2)c1 (stereo not shown)
4. Cc1cccc(-c2nc3nc(C(=O)O)nc(N(C)Cc4ccccc4)c3n2Cc2ccc(C(F)(F)F)cc2)c1
5. Cc1cccc(-c2nc3nc(C(=O)O)nc(N(C)C(C)C(C)C)c3n2Cc2ccc(C(F)(F)F)cc2)c1 (stereo not shown)

[34, 32, 34, 30, 46]

For each of the compounds below, note its inhibition at 1 µM.
1. Cc1cccc(-c2nc3nc(C(=O)O)nc(N(C)C4CCCC4)c3n2Cc2ccc(C(F)(F)F)cc2)c1
2. CCCC(C)N(C)c1nc(C(=O)O)nc2nc(-c3cccc(C)c3)n(Cc3ccc(C(F)(F)F)cc3)c12 (stereo not shown)

35
43
